Attribute: RAM network inhibition
Assay: RAM signaling pathway blockade in yeast – S. cerevisiae, Pdr1DBD-CYC8 efflux-inhibited sensitized strain, primary screen (AID 1298);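 also: 0% = DMSO untreated cells without growth and 100% = 10 µM 1-NA-PP1 full growth; higher means more yeast growth rescued from 5-FOA killing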
Settings: S. cerevisiae cbk1-as DSE1-URA3 strain, 5-FOA growth OD615, 2 d; at 50 µM; hits give high values
Activity calls are given as the source filed them.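 The calls were made as follows: active = RAM network inhibition above 8.4% in each of two replicates, 3 SD over the compound average; inconclusive = above 8.4% inhibition in only one replicate; inactive = 8.4% inhibition or less in each replicate.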

The examples below pair each entry with its known result.
- compound: "Cc1ccc(C(=O)N2CCN(C3CCCCC3)CC2)s1"
  RAM network inhibition: "1.05% (inactive)"
- compound: "COc1cccc(C2NC(=O)NC(C)=C2C(=O)Nc2ccc(C)cc2)c1OC (stereo unspecified)"
  RAM network inhibition: "6.12% (inactive)"
- compound: "CCN(CC)C(=O)CN(Cc1ccccc1)S(=O)(=O)c1ccc(F)cc1"
  RAM network inhibition: "2.88% (inactive)"
- compound: "CCSc1nc2c(cnn2-c2ccc(C)c(C)c2)c(=O)[nH]1"
  RAM network inhibition: "7.85% (inactive)"
- compound: "Cc1cccc(NC(=O)Cn2cnc3sc(C)c(S(=O)(=O)N4CCC(C)CC4)c3c2=O)n1"
  RAM network inhibition: "9.71% (inactive)"
- compound: "Cn1c(=O)n(C)c2cc(S(=O)(=O)O)ccc21"
  RAM network inhibition: "0.76% (inactive)"

Incoming: For the compound "Oc1ccccc1-c1nnc(COc2ccccc2)o1" , give its reported RAM network inhibition.
Outgoing: 5.2% (inactive)

Incoming: State its RAM network inhibition: "Cc1ccc(N)c(C(O)(C(F)(F)F)C(F)(F)F)c1"
Outgoing: 2.27% (inactive)

Incoming: Return RAM network inhibition (reported value) for this compound: "N#Cc1c2n(c3c(=O)n(Cc4ccc(Cl)cc4)cnc13)CCCC2"
Outgoing: 4.22% (inactive)

Incoming: Give a short answer stating reported RAM network inhibition for "Cc1nc(CNS(=O)(=O)c2ccc3ccccc3c2)cs1" .
Outgoing: 0% (inactive)

Incoming: Look up RAM network inhibition of "Cc1ccc(-c2nn3c(C)nnc3s2)cc1NC(=O)c1ccc(OC(C)C)cc1" and report it.
Outgoing: 7.25% (inactive)

Where do the numbers come from? From PubChem BioAssay.
